Hello, the source for this data is patent US20250011410A1, in case you need it.

TESTED_SYSTEM: T1, canine NGF tagged at the C-terminus with the Flag tag (canine, UniProt A0A8I3PYI3 122-241)
T1 construct: mature; Expressed with baculovirus technology; also called feline NGF (processed form identical)
T1 sequence (A0A8I3PYI3 entry or part of it): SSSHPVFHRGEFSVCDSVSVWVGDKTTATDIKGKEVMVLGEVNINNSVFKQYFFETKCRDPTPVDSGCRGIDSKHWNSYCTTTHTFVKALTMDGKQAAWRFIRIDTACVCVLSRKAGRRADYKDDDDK
PROTOCOL_TEXT: SPR off-rate screen, Fab-SASA on BSA chip
OBSERVABLE: Ratio WT-kd/clone-kd
Answer using only a numeral; do not append any unit.

Sample answers from the record:
felinized clone 101 Fab-SASA variant S30Q (VL) (Fab, V domains shown, not shown: small tags and cut ends) VH: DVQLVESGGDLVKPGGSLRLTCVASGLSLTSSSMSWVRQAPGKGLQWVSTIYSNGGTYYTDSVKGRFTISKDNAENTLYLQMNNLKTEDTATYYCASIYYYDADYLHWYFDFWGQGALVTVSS VL: EIQMTQSPTSLSASVGDRVTITCRASEGIQNNLSWYQQTPGKAPKLLIYATSNLHSGVPSRFSGSGSGTDFTLTISSLQPEDFATYYCQQGYKWPLTFGGGTKLEITR: 2.91
felinized clone 101 Fab-SASA variant S97M (VH) (Fab, V domains shown, not shown: small tags and cut ends) VH: DVQLVESGGDLVKPGGSLRLTCVASGLSLTSSSMSWVRQAPGKGLQWVSTIYSNGGTYYTDSVKGRFTISKDNAENTLYLQMNNLKTEDTATYYCAMIYYYDADYLHWYFDFWGQGALVTVSS VL: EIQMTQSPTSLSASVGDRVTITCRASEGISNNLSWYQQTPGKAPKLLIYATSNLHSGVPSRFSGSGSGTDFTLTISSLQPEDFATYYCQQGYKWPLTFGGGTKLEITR: 2.02
felinized clone 101 Fab-SASA variant S56E (VL) (Fab, V domains shown, not shown: small tags and cut ends) VH: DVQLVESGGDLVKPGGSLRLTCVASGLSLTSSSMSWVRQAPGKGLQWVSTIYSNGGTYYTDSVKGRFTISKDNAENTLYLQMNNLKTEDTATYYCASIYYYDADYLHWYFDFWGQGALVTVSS VL: EIQMTQSPTSLSASVGDRVTITCRASEGISNNLSWYQQTPGKAPKLLIYATSNLHEGVPSRFSGSGSGTDFTLTISSLQPEDFATYYCQQGYKWPLTFGGGTKLEITR: 1.17

Bench note: what Ratio WT-kd/clone-kd did felinized clone 101 Fab-SASA variant S97Q (VH) (Fab, V domains shown, not shown: small tags and cut ends, Fab-SASA in conditioned medium) VH: DVQLVESGGDLVKPGGSLRLTCVASGLSLTSSSMSWVRQAPGKGLQWVSTIYSNGGTYYTDSVKGRFTISKDNAENTLYLQMNNLKTEDTATYYCAQIYYYDADYLHWYFDFWGQGALVTVSS VL: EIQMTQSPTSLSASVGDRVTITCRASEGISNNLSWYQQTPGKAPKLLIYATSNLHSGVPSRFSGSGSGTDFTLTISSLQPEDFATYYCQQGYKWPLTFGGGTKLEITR show?
2.34

What does the data say about its Ratio WT-kd/clone-kd? Entry: felinized clone 101 Fab-SASA variant T60S (VH) (Fab, V domains shown, not shown: small tags and cut ends) VH: DVQLVESGGDLVKPGGSLRLTCVASGLSLTSSSMSWVRQAPGKGLQWVSTIYSNGGTYYSDSVKGRFTISKDNAENTLYLQMNNLKTEDTATYYCASIYYYDADYLHWYFDFWGQGALVTVSS VL: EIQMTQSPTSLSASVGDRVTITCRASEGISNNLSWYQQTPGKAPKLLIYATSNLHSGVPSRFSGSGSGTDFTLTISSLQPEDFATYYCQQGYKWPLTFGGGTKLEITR
1.65

Dear colleague, I am looking for the recorded Ratio WT-kd/clone-kd of the following binder: felinized clone 101 Fab-SASA variant N53K (VL) (Fab, V domains shown, not shown: small tags and cut ends) VH: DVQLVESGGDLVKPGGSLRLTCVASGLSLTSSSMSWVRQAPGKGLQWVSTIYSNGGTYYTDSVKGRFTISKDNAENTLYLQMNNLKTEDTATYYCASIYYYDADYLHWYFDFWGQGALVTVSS VL: EIQMTQSPTSLSASVGDRVTITCRASEGISNNLSWYQQTPGKAPKLLIYATSKLHSGVPSRFSGSGSGTDFTLTISSLQPEDFATYYCQQGYKWPLTFGGGTKLEITR
1.58

Could you tell me which Ratio WT-kd/clone-kd is on file for felinized clone 101 Fab-SASA variant N31Q (VL) (Fab, V domains shown, not shown: small tags and cut ends) VH: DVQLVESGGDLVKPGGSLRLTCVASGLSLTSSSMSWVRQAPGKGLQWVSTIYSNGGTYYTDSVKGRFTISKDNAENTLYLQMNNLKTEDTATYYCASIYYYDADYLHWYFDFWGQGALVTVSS VL: EIQMTQSPTSLSASVGDRVTITCRASEGISQNLSWYQQTPGKAPKLLIYATSNLHSGVPSRFSGSGSGTDFTLTISSLQPEDFATYYCQQGYKWPLTFGGGTKLEITR ?
1.96

Using the record for felinized clone 101 Fab-SASA variant S56T (VL) (Fab, V domains shown, not shown: small tags and cut ends) VH: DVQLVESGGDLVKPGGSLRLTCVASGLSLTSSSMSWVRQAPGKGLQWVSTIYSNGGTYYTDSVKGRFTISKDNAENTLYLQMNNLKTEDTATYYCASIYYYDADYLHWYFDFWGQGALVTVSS VL: EIQMTQSPTSLSASVGDRVTITCRASEGISNNLSWYQQTPGKAPKLLIYATSNLHTGVPSRFSGSGSGTDFTLTISSLQPEDFATYYCQQGYKWPLTFGGGTKLEITR , report its Ratio WT-kd/clone-kd.
1.32

Any idea what its Ratio WT-kd/clone-kd is? The binder is felinized clone 101 Fab-SASA variant F112N (VH) (Fab, V domains shown, not shown: small tags and cut ends) VH: DVQLVESGGDLVKPGGSLRLTCVASGLSLTSSSMSWVRQAPGKGLQWVSTIYSNGGTYYTDSVKGRFTISKDNAENTLYLQMNNLKTEDTATYYCASIYYYDADYLHWYFDNWGQGALVTVSS VL: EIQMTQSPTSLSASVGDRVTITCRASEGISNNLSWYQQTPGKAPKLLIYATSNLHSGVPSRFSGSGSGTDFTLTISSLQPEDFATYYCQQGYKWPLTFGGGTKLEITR
1.47

I have this binder here, felinized clone 101 Fab-SASA variant T60H (VH) (Fab, V domains shown, not shown: small tags and cut ends) VH: DVQLVESGGDLVKPGGSLRLTCVASGLSLTSSSMSWVRQAPGKGLQWVSTIYSNGGTYYHDSVKGRFTISKDNAENTLYLQMNNLKTEDTATYYCASIYYYDADYLHWYFDFWGQGALVTVSS VL: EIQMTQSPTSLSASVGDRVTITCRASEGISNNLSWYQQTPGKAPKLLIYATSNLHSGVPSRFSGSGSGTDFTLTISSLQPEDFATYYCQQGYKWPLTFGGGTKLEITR , and I need its recorded Ratio WT-kd/clone-kd.
1.68
